- System: A204
- experiment.summary: cells
- Set-up: Cell growth inhibition, sulforhodamine B total protein staining
- condition: Homo sapiens, A204; 72 h growth; read-out: Cell growth inhibition IC50/µM
reported.property: IC50
Output should be the measured figure followed by the unit it is expressed in.

The compound listed as CCOC(=O)Cn1c2c(c3ccccc31)C[C@@H]1C[C@H]2C(OC)CN1C(=O)c1cccnc1SC (single isomer, unassigned; (+)) [(+)-5a, Glupin] shows IC50 equal to 0.562 µM

----------
- Test system: MDAMB231
- experiment.summary: cells
- Parameters: Cell growth inhibition, sulforhodamine B total protein staining
- condition: Homo sapiens, MDA-MB-231; 72 h growth; read-out: Cell growth inhibition IC50/µM
reported.property: IC50 (µM)
Your answer is read as µM, so omit the unit and give the number.

The molecule listed as CCOC(=O)Cn1c2c(c3ccccc31)C[C@@H]1C[C@H]2C(OC)CN1C(=O)c1cccnc1SC (single isomer, unassigned; (+)) [(+)-5a, Glupin] shows IC50 equal to 8.38
